Origin of the recorded values: patent US12492188B2

Target: UniProt:Q9NR97
Sequence (Q9NR97 27-1041): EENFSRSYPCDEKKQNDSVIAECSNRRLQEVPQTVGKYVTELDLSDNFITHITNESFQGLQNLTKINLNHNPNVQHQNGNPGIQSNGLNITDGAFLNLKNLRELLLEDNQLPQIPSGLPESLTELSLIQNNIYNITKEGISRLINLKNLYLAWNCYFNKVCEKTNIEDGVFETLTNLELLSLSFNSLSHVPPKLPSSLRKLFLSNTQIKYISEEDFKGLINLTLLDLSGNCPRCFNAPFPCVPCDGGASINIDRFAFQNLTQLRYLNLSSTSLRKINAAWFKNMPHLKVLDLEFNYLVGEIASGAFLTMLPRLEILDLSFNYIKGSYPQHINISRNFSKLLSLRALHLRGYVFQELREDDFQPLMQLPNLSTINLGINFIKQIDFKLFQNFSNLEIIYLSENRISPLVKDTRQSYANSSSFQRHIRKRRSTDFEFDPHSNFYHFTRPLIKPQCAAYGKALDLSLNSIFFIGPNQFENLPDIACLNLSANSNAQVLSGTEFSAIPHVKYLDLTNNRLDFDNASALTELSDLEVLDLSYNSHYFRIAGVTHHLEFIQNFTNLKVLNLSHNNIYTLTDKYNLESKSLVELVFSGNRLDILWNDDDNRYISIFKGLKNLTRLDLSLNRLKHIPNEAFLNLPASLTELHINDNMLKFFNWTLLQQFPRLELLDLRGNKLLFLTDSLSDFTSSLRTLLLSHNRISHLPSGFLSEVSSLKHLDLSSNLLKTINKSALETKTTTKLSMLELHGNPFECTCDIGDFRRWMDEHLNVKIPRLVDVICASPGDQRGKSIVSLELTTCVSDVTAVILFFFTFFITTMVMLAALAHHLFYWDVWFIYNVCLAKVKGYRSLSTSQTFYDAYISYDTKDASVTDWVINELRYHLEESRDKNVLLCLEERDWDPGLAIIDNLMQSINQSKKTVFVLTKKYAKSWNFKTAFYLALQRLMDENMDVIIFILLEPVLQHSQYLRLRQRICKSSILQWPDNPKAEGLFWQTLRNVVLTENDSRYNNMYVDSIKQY
Experiment: TLR8 inhibition reporter assay (HEK-Blue cells, secreted embryonic alkaline phosphatase reporter)
Details: HEK-Blue cells overexpressing human TLR8, stimulated with R848 15.9 μM; read-out: TLR 8 IC50
pIC50: −log10 of the molar value.
Form field: pIC50 (one value per entry).

molecule | pIC50
Cn1c(-c2ccc(S(C)(=O)=O)cc2)nc2c(F)c(C3CCN(C4CC5CCC(C4)N5C4COC4)CC3)ccc21 (stereo not shown) [Example 196] | < 4.30
Cc1cc(C2CCN(C3CCN(CC(C)C)CC3)CC2)cc2c1nc(-c1ccc(S(C)(=O)=O)cc1)n2C | < 4.30
CC(C)CN1C2CCC1CC(N1CCC(c3cc(F)c4nc(-c5ccc(S(C)(=O)=O)cc5)n(C5CC5)c4c3)CC1)C2 (single isomer, unassigned) [Example 322] | < 4.30
COCCN1CCC(N2CCC(c3cc4nc(-c5ccc(S(C)(=O)=O)cc5)n(C)c4cc3F)CC2)CC1 | < 4.30
Cn1c(-c2ccc(S(C)(=O)=O)cc2)nc2cc(F)c(C3CCN(C4CC5CCC(C4)N5CC4CC4)CC3)cc21 (stereo not shown) [Example 230] | < 4.30
Cc1cc(C2CCN(C3CC4CCC(C3)N4C(C)C)CC2)cc2c1nc(-c1ccc(S(C)(=O)=O)cc1)n2C (single isomer, unassigned) [Example 85] | < 4.60
COc1ccc(-c2nc3c(C)cc(C4CCN(C5CCN(C6CC6)CC5)CC4)cc3[nH]2)cc1OC | 5.26
